# Target Desc: T1, MurineB7-H4 (Mus musculus, UniProt Q7TSP5)
# T1 construct: Mouse B7H4 ECD; FLAG (C); 10His (C); made in house
# T1 sequence (Q7TSP5 25-257 limits assumed): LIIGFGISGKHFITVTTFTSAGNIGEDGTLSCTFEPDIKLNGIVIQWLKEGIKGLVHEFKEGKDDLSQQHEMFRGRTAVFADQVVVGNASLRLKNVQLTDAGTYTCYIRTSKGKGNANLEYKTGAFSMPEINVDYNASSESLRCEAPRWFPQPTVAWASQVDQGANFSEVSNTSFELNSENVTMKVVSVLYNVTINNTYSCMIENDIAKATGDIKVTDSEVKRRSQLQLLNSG
# Assay Remarks: ForteBio Octet affinity
# Format: binding, murine
# Condition Parameters: hIgG1 (n = 1)
kon for assorted molecules
Number only, in M⁻¹ s⁻¹; omit the unit.

Worked set:
>>> recorded_measurement("ZY0E05-E07: anti-B7-H4 antibody clone, VH SEQ ID NO: 37, VL SEQ ID NO: 38 (antibody, V domains shown) VH: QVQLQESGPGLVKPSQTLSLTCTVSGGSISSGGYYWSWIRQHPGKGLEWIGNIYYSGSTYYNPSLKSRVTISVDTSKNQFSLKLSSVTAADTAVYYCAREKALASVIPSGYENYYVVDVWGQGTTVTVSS VL: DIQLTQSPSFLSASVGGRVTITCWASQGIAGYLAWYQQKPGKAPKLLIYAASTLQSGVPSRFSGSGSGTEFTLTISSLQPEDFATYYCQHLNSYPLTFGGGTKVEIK")
17900
>>> recorded_measurement("ZY0EQD-E02: anti-B7-H4 antibody clone, VH SEQ ID NO: 33, VL SEQ ID NO: 34 (antibody, V domains shown) VH: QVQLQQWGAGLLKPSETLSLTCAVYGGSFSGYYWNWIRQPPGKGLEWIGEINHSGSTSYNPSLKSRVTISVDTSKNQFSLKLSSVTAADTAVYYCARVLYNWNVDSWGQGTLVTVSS VL: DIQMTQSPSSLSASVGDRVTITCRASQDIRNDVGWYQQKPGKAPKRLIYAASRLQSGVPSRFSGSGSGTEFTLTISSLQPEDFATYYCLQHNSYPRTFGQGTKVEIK")
341000

Please look at the following molecule next.
Task item: Name the reported kon value associated with the molecule ZY0EOB-F05: anti-B7-H4 antibody clone, VH SEQ ID NO: 35, VL SEQ ID NO: 36 (antibody, V domains shown) VH: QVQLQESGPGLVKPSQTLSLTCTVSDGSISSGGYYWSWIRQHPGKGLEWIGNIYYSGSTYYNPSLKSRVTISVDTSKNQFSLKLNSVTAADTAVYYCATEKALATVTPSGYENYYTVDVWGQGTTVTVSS VL: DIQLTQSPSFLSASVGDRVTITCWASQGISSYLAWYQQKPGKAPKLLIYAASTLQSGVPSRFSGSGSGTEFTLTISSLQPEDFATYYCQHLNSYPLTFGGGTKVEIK
Reply: 24900
